growth inhibition values for the compounds below.
experiment: NCI Yeast Anticancer Drug Screen. Data for the rad50 strain (AID 155);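 further: 0% = growth of vehicle-only cultures of the same strain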; conditions: S. cerevisiae rad50 strain growth inhibition; at 5.0 µM (retest, dose inferred, filed as 0.5); active compounds read high
About 79,000 compounds went through this panel and 15% of them were active in at least one assay; those are over-represented in the sample as a whole.
observation_type: growth inhibition (%)

[[record]]
compound = "CN(C)CCCCN1c2ccccc2Sc2ccc(N=[N+]=[N-])cc21"
observation_type = "growth inhibition"
recorded_number = 91

[[record]]
compound = "CC(C)=NOC(=O)Nc1ccc(Cl)cc1"
observation_type = "growth inhibition"
recorded_number = 87

[[record]]
compound = "Cc1c(-c2ccccn2)ccc2ccccc12"
observation_type = "growth inhibition"
recorded_number = 1

[[record]]
compound = "CCCCCCSc1ncnc2[nH]ncc12"
observation_type = "growth inhibition"
recorded_number = -1

[[record]]
compound = "CC(=O)OC1CCC2(C)C(=CC(C3C=C4CC(OC(C)=O)CCC4(C)C4=C3C3CC5OC6(CCC(C)CO6)C(C)C5C3(C)CC4)C3=C2CCC2(C)C3CC3OC4(CCC(C)CO4)C(C)C32)C1 (stereo not given)"
observation_type = "growth inhibition"
recorded_number = -7


###

test: NCI Yeast Anticancer Drug Screen. Data for the rad50EPP+ strain (AID 151);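 further: 0% = growth of vehicle-treated control cultures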; conditions: S. cerevisiae rad50 mutant strain, at 100.0 µM, active compounds read high
This is part of a sample that, as a whole, favours compounds with a hit. Of some 79,000 tested, about 15% had one in any assay.
growth inhibition values for the compounds below.
observation_type: growth inhibition (%)

[[record]]
compound = "O=C(O)c1ccc(N2C(=O)C=CC2=O)cc1"
unit_of_measure = "%"
recorded_number = 40

[[record]]
compound = "CC(C)/C(Cl)=N\\OC(=O)Nc1ccc(F)cc1F"
unit_of_measure = "%"
recorded_number = 85

[[record]]
compound = "COC(=O)C1(C)CCc2c(ccc3ccccc23)C1=O (centres undefined)"
unit_of_measure = "%"
recorded_number = 49

[[record]]
compound = "CN(C)CCOC1(Cc2ccc(F)cc2)CCC(C(C)(C)C)CC1 (centres undefined)"
unit_of_measure = "%"
recorded_number = 68

[[record]]
compound = "CCCCCCOC(=O)NCCOC(=O)Nc1ccccc1"
unit_of_measure = "%"
recorded_number = 15

[[record]]
compound = "N#CC1=C(N)N(/N=C/c2ccccc2)C(c2ccccc2)C1(C#N)C#N (centres undefined)"
unit_of_measure = "%"
recorded_number = 5

[[record]]
compound = "O=[N+]([O-])c1cccc2nc3ccccc3c(NCCCn3ccnc3[N+](=O)[O-])c12"
unit_of_measure = "%"
recorded_number = 90

[[record]]
compound = "Brc1ccccc1-c1ncc(-c2ccccc2)o1"
unit_of_measure = "%"
recorded_number = 62

[[record]]
compound = "CC[N+](CC)(CC)c1ccccc1"
unit_of_measure = "%"
recorded_number = -20

[[record]]
compound = "CCCCc1ccc(-n2c(C)c(COC(=O)NC)c(COC(=O)NC)c2C)cc1"
unit_of_measure = "%"
recorded_number = 92

[[record]]
compound = "COc1cc([C@@H]2c3cc4c(cc3[C@H](OC3OC5COC(C(C)C)OC5C(O)C3O)C3COC(=O)[C@@H]32)OCO4)cc(OC)c1O (some centres undefined)"
unit_of_measure = "%"
recorded_number = -37

[[record]]
compound = "O=C1Nc2ccccc2/C1=C/c1ccccc1"
unit_of_measure = "%"
recorded_number = 53

[[record]]
compound = "CCCCOCn1c(=O)[nH]c(=O)c2cc(Br)ccc21"
unit_of_measure = "%"
recorded_number = -92

[[record]]
compound = "CCO/C(C)=C(/C#N)C(N)=S"
unit_of_measure = "%"
recorded_number = 2

[[record]]
compound = "COc1cc2ccnc(-c3c4ccccc4c(N)c4c(OC)c(OC)ccc34)c2cc1OC"
unit_of_measure = "%"
recorded_number = 49

[[record]]
compound = "Cc1nc2ccc(N=NN(C)C)cc2[nH]1"
unit_of_measure = "%"
recorded_number = 98

[[record]]
compound = "NCCNCCNc1ccc(NCCNCCN)c2c1C(=O)c1c(O)ccc(O)c1C2=O"
unit_of_measure = "%"
recorded_number = 69

[[record]]
compound = "COc1ccc2c(c1)n([O-])c1ccccc1[n+]2=O"
unit_of_measure = "%"
recorded_number = 98

[[record]]
compound = "CC(C)=NOC(=O)Nc1ccc(Cl)cc1"
unit_of_measure = "%"
recorded_number = 95

[[record]]
compound = "Cc1cc(O)c(C(C)C)cc1C1(c2cc(C(C)C)c(O)cc2C)OC(=O)c2ccccc21"
unit_of_measure = "%"
recorded_number = 0

[[record]]
compound = "CCOC(=O)C1=C(C)NC(C)=C(C(=O)OCCNC(=O)c2ccc(N=[N+]=[N-])cc2)C1c1ccccc1C(F)(F)F (centres undefined)"
unit_of_measure = "%"
recorded_number = -11

[[record]]
compound = "NC(=O)c1c([N+](=O)[O-])cc(C(F)(F)F)cc1[N+](=O)[O-]"
unit_of_measure = "%"
recorded_number = 40

[[record]]
compound = "CCOC1(c2cccc([N+](=O)[O-])c2)c2ccccc2Oc2ccccc21"
unit_of_measure = "%"
recorded_number = 19

[[record]]
compound = "CCCCCCCCCCCCNC(C)=O"
unit_of_measure = "%"
recorded_number = 26


###

assay: NCI Yeast Anticancer Drug Screen. Data for the wt2 strain (AID 169);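 further: 0% = growth of vehicle-treated yeast cultures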; conditions: S. cerevisiae wt2 strain growth inhibition; at 100.0 µM; active compounds read high
This is part of a sample that, as a whole, favours compounds with a hit. Of some 79,000 tested, about 15% had one in any assay.
The label depends only on growth inhibition: true (1) if it is at least 90%, false (0) if it is smaller.

[[record]]
molecule = "Nc1ccc(F)cc1S"
label = "true (1)"

[[record]]
molecule = "CC(=O)ON=C1C=CC(=C(C#N)c2ccc(Cl)cc2)C=C1"
label = "false (0)"

[[record]]
molecule = "Cc1cccc(/C=N/NC(=S)N2CCCC2)n1"
label = "true (1)"

[[record]]
molecule = "CC(=O)SC(C[N+](=O)[O-])c1ccccc1 (stereo unspecified)"
label = "true (1)"

[[record]]
molecule = "C=C(C(=C)n1nnc(C(=O)OC)c1C(=O)OC)n1nnc(C(=O)OC)c1C(=O)OC"
label = "false (0)"

[[record]]
molecule = "NC(N)=NS(=O)(=O)c1ccc(Nc2c3ccccc3nc3c(C(=O)NCCO)cccc23)cc1"
label = "false (0)"

[[record]]
molecule = "CN1CCN(C(=O)/C=C/C(=O)c2ccccc2)CC1"
label = "true (1)"

[[record]]
molecule = "Cc1ccc(NC(c2ccccc2)c2ccc3cccnc3c2O)cc1 (stereo unspecified)"
label = "false (0)"

[[record]]
molecule = "COc1cc([C@@H]2c3cc4c(cc3[C@H](OC3OC5COC(C(C)C)OC5C(O)C3O)C3COC(=O)[C@@H]32)OCO4)cc(OC)c1O (stereo partly specified)"
label = "false (0)"

[[record]]
molecule = "CCOC(=O)C#Cc1ccc([N+](=O)[O-])cc1"
label = "false (0)"

[[record]]
molecule = "Cc1cccc(C(C)(C)C)c1NC(=O)C(C#N)C1=C(Cl)C(=O)c2ccccc2C1=O (stereo unspecified)"
label = "true (1)"

[[record]]
molecule = "CCOC(=O)/C(=C\\c1ccc(C#N)cc1)C(C)=O"
label = "true (1)"

[[record]]
molecule = "Cc1cc(C(C)(C)CC(C)(C)C)ccc1O"
label = "true (1)"

[[record]]
molecule = "CC1=CC(=C(c2ccc(N)cc2)c2ccc(N)cc2)C=CC1=N"
label = "true (1)"

[[record]]
molecule = "Nc1nc(N)c2nc(CNc3ccc(C(=O)NC(CCC(=O)O)C(=O)O)cc3F)cnc2n1 (stereo unspecified)"
label = "false (0)"

[[record]]
molecule = "Cc1ccc([N+]2=NC(c3ccccc3)=NN(c3ccccc3)C2)cc1"
label = "true (1)"

[[record]]
molecule = "CCCCN(CCCC)C(=O)/C=C/c1ccccc1"
label = "true (1)"

[[record]]
molecule = "Nc1nc2ccc(NCc3ccc(C(=O)NC(CCC(=O)O)C(=O)O)cc3)cc2c(=O)[nH]1 (stereo unspecified)"
label = "false (0)"

[[record]]
molecule = "CC(C)OC(=O)c1ccc(CCc2cc(O)c(Br)cc2O)cc1"
label = "true (1)"

[[record]]
molecule = "Cc1ccc(CC2(OCCN(C)C)CCC(C(C)(C)C)CC2)cc1 (stereo unspecified)"
label = "true (1)"

[[record]]
molecule = "O=[n+]1c2ccccc2n([O-])c2cc(Br)ccc21"
label = "true (1)"

[[record]]
molecule = "CC1=NOC(=O)/C1=C/c1ccc2c(c1)OCO2"
label = "false (0)"

[[record]]
molecule = "Cc1nc(Nc2ccccc2[N+](=O)[O-])sc1C(=O)CC(=O)C(=O)Nc1c(C(C)C)cccc1C(C)C"
label = "false (0)"

[[record]]
molecule = "O=C1CC(=O)c2ccccc21"
label = "false (0)"

[[record]]
molecule = "O=C1C=C(N2CCN(c3ccccn3)CC2)C(=O)c2c(O)ccc(O)c21"
label = "false (0)"

[[record]]
molecule = "COC(=O)/C=C(/CC(=O)OC)C(=O)OC"
label = "false (0)"

[[record]]
molecule = "O=C(O)Cc1cc(F)ccc1C(=O)O"
label = "false (0)"

[[record]]
molecule = "CC(C)OC(=O)Nc1ccc2nc(-c3cscn3)[nH]c2c1"
label = "true (1)"

[[record]]
molecule = "O=[N+]([O-])c1cc(Cl)cnc1Br"
label = "false (0)"

[[record]]
molecule = "O=C1c2cccnc2C(=O)C2C3C=CC(C3)C12 (stereo unspecified)"
label = "true (1)"

[[record]]
molecule = "COC1=C(OC)C(=O)C(Sc2ccc3ccccc3c2)=CC1=O"
label = "true (1)"

[[record]]
molecule = "COc1ccc(N=CN(C)C)c(C)c1"
label = "true (1)"

[[record]]
molecule = "OCc1ccccc1Cc1ccccc1"
label = "false (0)"

[[record]]
molecule = "CCCCCCCCCCCC(O)S(=O)(=O)O (stereo unspecified)"
label = "true (1)"

[[record]]
molecule = "C[Si](C)(C)/C=C/CCNC(C#N)c1ccccc1 (stereo unspecified)"
label = "true (1)"

[[record]]
molecule = "CN(C)CCNc1ccc2ncnc3c2c1C(=O)c1ccccc1-3"
label = "false (0)"

[[record]]
molecule = "Cc1ccc(N=Nc2ccc(O)c(=O)cc2)cc1"
label = "true (1)"

[[record]]
molecule = "Cc1cc(C)nc(NS(=O)(=O)c2ccc(Nc3c4ccccc4nc4c(C(=O)NCCO)cccc34)cc2)n1"
label = "false (0)"

[[record]]
molecule = "CCOc1ccccc1N=Cc1c2ccccc2cc2ccccc12"
label = "true (1)"

[[record]]
molecule = "O=c1[nH]c(-c2ccccc2)nc2c1sc1nc3ccccc3n12"
label = "false (0)"

[[record]]
molecule = "CC(C)(CCCCC(C)(C)[N+](C)(C)C)[N+](C)(C)C"
label = "false (0)"

[[record]]
molecule = "COC(=O)C1=C(C(=O)OC)C(C(=O)OC)C(C(=O)OC)C(C(=O)OC)(C(=O)OC)C(C(=O)OC)=C1C(=O)OC (stereo unspecified)"
label = "false (0)"

